Assay: Plasma and urine pharmacokinetics, phase IIa study in women with acute uUTI
Assay type: in vivo, human
Settings: female, human, urine, oral, 1500 mg, Day 1; read-out: Urine AUC(0-T), Geometric Mean (% CVb)
Protocol: Bronchoalveolar lavage samples were collected to determine gepotidacin exposures in ELF and AM following a single 1000 mg IV infusion over 2 hours to healthy subjects. Saliva exposure was assessed in healthy volunteers following 1500 mg oral single dose. Gepotidacin exposures in urine was assessed in women with acute uUTI following 1500 mg BID oral doses for 5 days. […]
value_type: AUC(0-t) (µg·h/mL)
One number for each entry, in µg·h/mL.

Data request: Supply measured AUC(0-t) of O=c1ccc2ncc(=O)n3c2n1C[C@H]3CN1CCC(NCc2cc3c(cn2)OCCC3)CC1 in your reply.
Data returned: 3740

----------
Experiment: Exposure in epithelial lining fluid (ELF) and alveolar macrophages (AM), healthy subjects
Type: in vivo
Settings: human, alveolar macrophages, single 1000 mg IV infusion over 2 hours, read-out: AM AUC(0-12) ratio to unbound plasma
value_type: Kp
Give bare numbers.

Data request: Supply measured Kp of O=c1ccc2ncc(=O)n3c2n1C[C@H]3CN1CCC(NCc2cc3c(cn2)OCCC3)CC1 in your reply.
Data returned: 178

----------
Test: Plasma and urine pharmacokinetics, phase IIa study in women with acute uUTI
Type: in vivo, human
Conditions: female, human, plasma, oral, 1500 mg, plasma; Day 1; read-out: median Tmax
Experimental: Bronchoalveolar lavage samples were collected to determine gepotidacin exposures in ELF and AM following a single 1000 mg IV infusion over 2 hours to healthy subjects. Saliva exposure was assessed in healthy volunteers following 1500 mg oral single dose. Gepotidacin exposures in urine was assessed in women with acute uUTI following 1500 mg BID oral doses for 5 days. […]
value_type: Tmax (h)
Numbers only, in h.

Data request: Supply measured Tmax of O=c1ccc2ncc(=O)n3c2n1C[C@H]3CN1CCC(NCc2cc3c(cn2)OCCC3)CC1 in your reply.
Data returned: 1.5

----------
Experiment: Exposure in epithelial lining fluid (ELF) and alveolar macrophages (AM), healthy subjects
Format: in vivo
Conditions: human, epithelial lining fluid, single 1000 mg IV infusion over 2 hours, read-out: ELF AUC(0-12) ratio to unbound plasma
value_type: Kp
Numbers only.

Data request: Supply measured Kp of O=c1ccc2ncc(=O)n3c2n1C[C@H]3CN1CCC(NCc2cc3c(cn2)OCCC3)CC1 in your reply.
Data returned: 1.84

----------
Assay: Plasma and urine pharmacokinetics, phase IIa study in women with acute uUTI
Assay type: in vivo, human
Conditions: female, human, urine, oral, 1500 mg, Day 4; read-out: Urine AUC(0-T), Geometric Mean (% CVb)
value_type: AUC(0-t) (µg·h/mL)
Answers are plain numbers, in µg·h/mL.

Data request: Supply measured AUC(0-t) of O=c1ccc2ncc(=O)n3c2n1C[C@H]3CN1CCC(NCc2cc3c(cn2)OCCC3)CC1 [gepotidacin] in your reply.
Data returned: 5970

----------
Test: Plasma and urine pharmacokinetics, phase IIa study in women with acute uUTI
Format: in vivo, human
Settings: female, human, urine, po, 1500 mg, Day 1; 1500 mg BID oral, uUTI patients; read-out: urine AUC[0-tau]
Experimental: Bronchoalveolar lavage samples were collected to determine gepotidacin exposures in ELF and AM following a single 1000 mg IV infusion over 2 hours to healthy subjects. Saliva exposure was assessed in healthy volunteers following 1500 mg oral single dose. Gepotidacin exposures in urine was assessed in women with acute uUTI following 1500 mg BID oral doses for 5 days. […]
value_type: AUC (µg·h/mL)
Answers are plain numbers, in µg·h/mL.

Data request: Supply measured AUC of O=c1ccc2ncc(=O)n3c2n1C[C@H]3CN1CCC(NCc2cc3c(cn2)OCCC3)CC1 [gepotidacin] in your reply.
Data returned: 3740
